The measured values listed here are drawn from patent US20110217237A1.

Below, each entry is listed alongside its reported koff.
# target-entity: T1, mouse DLL4 extracellular domain (mouse, UniProt Q9JI71 27-532)
# T1 construct: extracellular domain; also called muDLL4 ECD; murine DLL4
# T1 sequence (Q9JI71 27-532): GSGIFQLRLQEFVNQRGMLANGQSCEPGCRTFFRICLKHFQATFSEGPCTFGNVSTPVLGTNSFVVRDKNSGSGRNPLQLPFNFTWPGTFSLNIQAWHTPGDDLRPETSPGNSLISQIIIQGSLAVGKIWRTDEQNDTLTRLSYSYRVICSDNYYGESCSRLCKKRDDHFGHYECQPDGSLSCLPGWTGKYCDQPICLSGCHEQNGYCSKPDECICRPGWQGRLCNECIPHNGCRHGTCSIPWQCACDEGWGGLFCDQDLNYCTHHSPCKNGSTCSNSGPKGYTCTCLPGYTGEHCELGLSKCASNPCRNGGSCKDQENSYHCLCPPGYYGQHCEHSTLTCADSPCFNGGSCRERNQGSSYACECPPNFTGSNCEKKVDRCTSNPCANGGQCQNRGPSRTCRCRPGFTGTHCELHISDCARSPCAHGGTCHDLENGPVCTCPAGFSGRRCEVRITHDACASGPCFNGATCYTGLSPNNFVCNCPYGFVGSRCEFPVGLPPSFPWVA
# test-details: SPR (Biacore)

{"binder": "h1A11.A11 (antibody, V domains shown, also called h1A11.A11 VH / h1A11VL.1) VH: EVQLVESGGGLVQPGGSLRLSCAASGFTFRHFPMAWVRQAPGKGLEWVATISSSDDWPNYRDSVKGRFTISRDNAKSSLYLQMNSLRAEDTAVYYCSRGYYNSPFAYWGQGTLVTVSS VL: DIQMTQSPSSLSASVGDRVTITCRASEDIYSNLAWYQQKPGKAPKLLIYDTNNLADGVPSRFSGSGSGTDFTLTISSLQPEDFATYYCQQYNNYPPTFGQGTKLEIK", "koff": "3.54e-05 s⁻¹"}
{"binder": "h1A11.H2 (antibody, V domains shown, also called h1A11.H2 VH / h1A11.E12 VL) VH: EVQLVESGGGLVQPGGSLRLSCAASGFTFGNFPMSWVRQAPGKGLEWVASISSSDSWATIGDSVKGRFTISRDNAKNSLYLQMNSLRAEDTAVYYCARGYYNSPFAFWGQGTLVTVSS VL: DIQMTQSPSSLSASVGDRVTITCRASQEIYRNLAWYQQKPGKSPKLLIFDTSVLADGVPSRFSGSGSGTDSTLTISSLQPEDFATYYCQQYTYYPPTFGQGTKLEIK", "koff": "5.07e-05 s⁻¹"}
{"binder": "h1A11.F5 (antibody, V domains shown, also called h1A11.F5 VH / h1A11.E12 VL) VH: EVQLVESGGGLVQPGGSLRLSCAASGFTFRHFPMAWVRQAPGKGLEWVATISSSDAWPSYRDSVKGRFTISRDNAKNSLYLQMNSLRAEDTAVYYCARGYYNSPFAYWGQGTLVTVSS VL: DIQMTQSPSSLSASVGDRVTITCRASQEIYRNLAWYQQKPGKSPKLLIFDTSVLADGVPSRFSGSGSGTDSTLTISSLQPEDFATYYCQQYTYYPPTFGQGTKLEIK", "koff": "3.97e-05 s⁻¹"}
